- System: HCT-116 colon
- EXPERIMENT SUMMARY: NCI tumour cell line growth inhibition, 48 h
Where a SMILES comes first, the peptide text is derived from it. Bridges are numbered along the chain shown (N, C = ends).
ASSAY READOUT: TGI

- MOLECULE: "CC(=O)OC1C2CCC3CC2C2(SCCS2)C31 (stereo unspecified)"
  ASSAY READOUT: "TGI"
  VALUE OBSERVED: "> 100 µM"
- MOLECULE: "OC(Cc1cccc2ccccc12)CN1CCC(c2ccccc2)CC1 (stereo unspecified)"
  ASSAY READOUT: "TGI"
  VALUE OBSERVED: "28.7 µM"
- MOLECULE: "O=C(NCCCN1CCN(CCCNC(=O)Nc2cc(Cl)ccc2Cl)CC1)Nc1cc(Cl)ccc1Cl"
  ASSAY READOUT: "TGI"
  VALUE OBSERVED: "> 100 µM"
- MOLECULE: "CCOC(=O)C(Cc1cc(OC)c(CC(C(=O)OCC)C(=O)OCC)cc1OC)C(=O)OCC"
  ASSAY READOUT: "TGI"
  VALUE OBSERVED: "> 100 µM"
- MOLECULE: "CSC(=S)NCc1cn(C)c2ccccc12"
  ASSAY READOUT: "TGI"
  VALUE OBSERVED: "> 100 µM"
- MOLECULE: "COC(=O)N[C@@H](C)CNc1nccc(-c2cn(C(C)C)nc2-c2cc(Cl)cc(NS(C)(=O)=O)c2F)n1"
  ASSAY READOUT: "TGI"
  VALUE OBSERVED: "> 100 µM"
- MOLECULE: "COC(=O)C1CCC(=O)NCCCCC(NC(=O)C(N)CC(=O)O)C(=O)N1 (stereo not drawn) (H-Asp-Lys-Glu-OMe; lactam 2-3; configuration not given here)"
  ASSAY READOUT: "TGI"
  VALUE OBSERVED: "> 100 µM"
- MOLECULE: "c1ccc(C2N=C(c3ccccn3)C(c3ccccn3)=NC2c2ccccc2)cc1 (stereo unspecified)"
  ASSAY READOUT: "TGI"
  VALUE OBSERVED: "> 100 µM"
- MOLECULE: "COC(=O)[C@@H]1C=CCN1S(=O)(=O)c1ccc(C)cc1"
  ASSAY READOUT: "TGI"
  VALUE OBSERVED: "> 100 µM"
- MOLECULE: "COc1ccc(-c2nc(-c3cnccn3)n(C/C=C/c3ccccc3)n2)cc1"
  ASSAY READOUT: "TGI"
  VALUE OBSERVED: "> 100 µM"
- MOLECULE: "COc1ccccc1/C=C(\\NC(=O)c1ccccc1)c1nc2ccccc2[nH]1"
  ASSAY READOUT: "TGI"
  VALUE OBSERVED: "> 100 µM"
- MOLECULE: "C=C1C(=O)OC2C[C@@]3(C)CCCC(=C)C3CC12 (stereo partly specified)"
  ASSAY READOUT: "TGI"
  VALUE OBSERVED: "15.2 µM"
- MOLECULE: "CN(C)CCN=c1nc2c(c(N)n1-c1ccccc1)c(=S)n(-c1ccccc1)c(=S)n2-c1ccccc1"
  ASSAY READOUT: "TGI"
  VALUE OBSERVED: "9.38 µM"
- MOLECULE: "CCOC(=O)c1sc(NC(=O)COc2ccc(/C=C3\\CCc4cc(OC)ccc4C3=O)cc2)nc1C"
  ASSAY READOUT: "TGI"
  VALUE OBSERVED: "25.6 µM"
- MOLECULE: "COC1OC(C)/C(=N/O)C2OC(C)(C)OC12 (stereo unspecified)"
  ASSAY READOUT: "TGI"
  VALUE OBSERVED: "> 100 µM"
- MOLECULE: "Cc1cc(C)c(S(=O)(=O)N(CCCCCN)OCCCN)c(C)c1"
  ASSAY READOUT: "TGI"
  VALUE OBSERVED: "32.7 µM"
- MOLECULE: "COC1CCC(CO)OO1 (stereo unspecified)"
  ASSAY READOUT: "TGI"
  VALUE OBSERVED: "> 100 µM"
- MOLECULE: "Cn1cc(-c2csc(-c3ccc(Cl)cc3)n2)c2cccnc21"
  ASSAY READOUT: "TGI"
  VALUE OBSERVED: "25.4 µM"
- MOLECULE: "C/C(=N/NC(N)=S)C(CN1CCOCC1)C(C1=C(O)c2ccccc2OC1)c1ccccc1 (stereo unspecified)"
  ASSAY READOUT: "TGI"
  VALUE OBSERVED: "> 100 µM"
- MOLECULE: "COc1c(OC2OC(C)C(O)C(O)C2O)c(OC)c2oc(-c3ccc(O)cc3)cc(=O)c2c1O (stereo unspecified)"
  ASSAY READOUT: "TGI"
  VALUE OBSERVED: "> 100 µM"
- MOLECULE: "CCOC(=O)c1c(SC(=O)c2ccc(Cl)cc2)n(-c2ccccc2)c(=S)n(-c2ccccc2)c1=O"
  ASSAY READOUT: "TGI"
  VALUE OBSERVED: "> 100 µM"
- MOLECULE: "CCNc1ccc2c(c1)C(=O)N(OS(C)(=O)=O)C2=O"
  ASSAY READOUT: "TGI"
  VALUE OBSERVED: "> 100 µM"
- MOLECULE: "C=C1c2nc3ccccc3n2C=C(c2ccccc2)N1c1ccc(C)cc1"
  ASSAY READOUT: "TGI"
  VALUE OBSERVED: "> 100 µM"
- MOLECULE: "CC(C)C(Br)C(=O)NCC(=O)O (stereo unspecified)"
  ASSAY READOUT: "TGI"
  VALUE OBSERVED: "> 100 µM"
- MOLECULE: "CN1Cc2ccccc2C2(COc3ccccc3C2=O)C1 (stereo unspecified)"
  ASSAY READOUT: "TGI"
  VALUE OBSERVED: "> 100 µM"
- MOLECULE: "COc1ccc(N=c2nc3sc4cc(Cl)ccc4n3c(N)c2C#N)cc1"
  ASSAY READOUT: "TGI"
  VALUE OBSERVED: "> 100 µM"
- MOLECULE: "CNC(=O)NCCCCC(NC(C)=O)C(=O)NCc1ccccc1 (stereo unspecified)"
  ASSAY READOUT: "TGI"
  VALUE OBSERVED: "> 100 µM"
- MOLECULE: "O=C1CC(c2cccc([N+](=O)[O-])c2)C2(C(=O)NC(=S)NC2=O)C(c2cccc([N+](=O)[O-])c2)C1 (stereo unspecified)"
  ASSAY READOUT: "TGI"
  VALUE OBSERVED: "43.7 µM"
- MOLECULE: "CC(C)(C)c1cc(C(C)(C)C)c(SC2OC(CO)C(O)C(O)C2O)c(O)c1O (stereo unspecified)"
  ASSAY READOUT: "TGI"
  VALUE OBSERVED: "29.1 µM"
- MOLECULE: "CCOC(=O)/C=C(/C(=O)OCC)n1cc(C)c(=O)n(Cc2cn(CCCCOC(C)=O)nn2)c1=O"
  ASSAY READOUT: "TGI"
  VALUE OBSERVED: "65 µM"
- MOLECULE: "CC1(C)Cc2ccccc2C(C)(Cl)C(=O)N1 (stereo unspecified)"
  ASSAY READOUT: "TGI"
  VALUE OBSERVED: "> 10 µM"
- MOLECULE: "CC(=O)N1CCOC12N=NC(C)(C)O2 (stereo unspecified)"
  ASSAY READOUT: "TGI"
  VALUE OBSERVED: "> 100 µM"
- MOLECULE: "O=C(Nc1ccccc1)N1C(c2ccccc2)=N[C@@H](c2ccccc2)[C@@H]1c1ccccc1"
  ASSAY READOUT: "TGI"
  VALUE OBSERVED: "36.3 µM"
- MOLECULE: "CCN(CC)c1ccc(/C=N/N=C(N)N)cc1"
  ASSAY READOUT: "TGI"
  VALUE OBSERVED: "18.5 µM"
- MOLECULE: "COc1ccc(-c2csc3c2[N+]2(C)C=CC=C2C3N2CCCC2)cc1 (stereo unspecified)"
  ASSAY READOUT: "TGI"
  VALUE OBSERVED: "> 100 µM"
- MOLECULE: "Cc1cc(O)c2c(c1)OC1(C)CCC3C(C)(C)CCCC34COC2C14 (stereo unspecified)"
  ASSAY READOUT: "TGI"
  VALUE OBSERVED: "27.3 µM"
- MOLECULE: "COC(=O)c1c(CC(=O)OC(C)C)cc2n(c1=O)Cc1c-2nc2ccccc2c1OC"
  ASSAY READOUT: "TGI"
  VALUE OBSERVED: "> 100 µM"
- MOLECULE: "COc1cccc(C=NC23CC4CC(CC(C4)C2)C3)c1"
  ASSAY READOUT: "TGI"
  VALUE OBSERVED: "> 100 µM"
- MOLECULE: "CC(=O)c1nc(-c2ccc(C[C@@H](CNC(=O)CN(C)C)NC(=O)c3ccc(OC(C)C)c(Cl)c3)cc2)cn1C"
  ASSAY READOUT: "TGI"
  VALUE OBSERVED: "13.1 µM"
- MOLECULE: "C/C(CC(O)(C(F)(F)F)C(F)(F)F)=N\\O"
  ASSAY READOUT: "TGI"
  VALUE OBSERVED: "> 10 µM"
- MOLECULE: "C=CCN1C(=O)C[C@H](Cc2ccccc2)NC(=O)C[C@H](Cc2ccccc2)N(CC=C)C(=O)C[C@H](Cc2ccccc2)NC(=O)C[C@@H]1Cc1ccccc1"
  ASSAY READOUT: "TGI"
  VALUE OBSERVED: "> 100 µM"
